Just for reference, patent US20070185311A1 is where these values come from.

target: DD(E) fragment of fibrin; experiment: affinity to DD(E) fragment of fibrin
Starred links: 1 amine or outer side, 2 acyl side, 3 side chain; linkers in the order of their positions; H or OH if unused. Positions of bridges follow the written chain, without caps; N, C: chain ends. Non-standard residues stand in square brackets, D forms with d. No end group written: not given here. Phe(4-OMe) = COc1ccc(C[C@H](N[*:1])C(=O)[*:2])cc1; Phe(4-CF3) = N[C@@H](Cc1ccc(C(F)(F)F)cc1)C(=O)O; Bpa = N[C@@H](Cc1ccc(C(=O)c2ccccc2)cc1)C(=O)O; Tyr(3-Cl) = N[C@@H](Cc1ccc(O)c(Cl)c1)C(=O)O; Bip = N[C@@H](Cc1ccc(-c2ccccc2)cc1)C(=O)O; Tyr(3-I) = N[C@@H](Cc1ccc(O)c(I)c1)C(=O)O; Phe(3-Me) = Cc1cccc(C[C@H](N)C(=O)O)c1; Phe(4-I) = N[C@@H](Cc1ccc(I)cc1)C(=O)O; Phe(4-Me) = Cc1ccc(C[C@H](N)C(=O)O)cc1; Hyp = O=C(O)[C@@H]1C[C@@H](O)CN1; hPhe = N[C@@H](CCc1ccccc1)C(=O)O; NDecylGly = CCCCCCCCCCNCC(=O)O; Tle = CC(C)(C)[C@H](N)C(=O)O; Ad = adenosine base unit; MTyr = not defined here; nTyr = not defined here

{"binder": "FHC[Hyp][Tyr(3-I)]DLCHI (disulfide 3-8 (inferred)) [F-H-C-Hyp-Y(3-I)-D-L-C-H-I]", "Kd": "< 100 nM"}
{"binder": "[Phe(4-OMe)]HC[Hyp][Tyr(3-Cl)]DLCHI (disulfide 3-8 (inferred)) [F(4-OMe)-H-C-Hyp-Y(3-Cl)-D-L-C-H-I]", "Kd": "< 100 nM"}
{"binder": "FHC[Hyp][Tyr(3-I)]DLCH[hPhe] (disulfide 3-8 (inferred)) [F-H-C-Hyp-Y(3-I)-D-L-C-H-Hfe]", "Kd": "< 100 nM"}
{"binder": "WEC[Hyp][Tyr(3-Cl)]GLCWIQ (disulfide 3-8 (inferred)) [W-E-C-Hyp-Y(3-Cl)-G-L-C-W-I-Q]", "Kd": "< 100 nM"}
{"binder": "[Tyr(26-Me)]HC[Hyp][Tyr(3-I)]DLCHI (disulfide 3-8 (inferred)) [Y(26-Me)-H-C-Hyp-Y(3-I)-D-L-C-H-I]", "Kd": "< 200 nM"}
{"binder": "[Ad]HC[Hyp][Tyr(3-I)]DLCHI (disulfide 3-8 (inferred)) [Ad-H-C-Hyp-Y(3-I)-D-L-C-H-I]", "Kd": "< 400 nM"}
{"binder": "F[dE]C[Hyp][Tyr(3-Cl)]GLCWIQ (disulfide 3-8 (inferred)) [F-(D-E)-C-Hyp-Y(3-Cl)-G-L-C-W-I-Q]", "Kd": "< 300 nM"}
{"binder": "FHC[Hyp][Tyr(3-Cl)]DLCHI (disulfide 3-8 (inferred)) [F-H-C-Hyp-Y(3-Cl)-D-L-C-H-I]", "Kd": "< 100 nM"}
{"binder": "FHC[Hyp][Tyr(3-I)]DLCH[Bip] (disulfide 3-8 (inferred)) [F-H-C-Hyp-Y(3-I)-D-L-C-H-Bip]", "Kd": "< 100 nM"}
{"binder": "FHC[Hyp][Tyr(3-I)]DLCH[Tle] (disulfide 3-8 (inferred)) [F-H-C-Hyp-Y(3-I)-D-L-C-H-Tle]", "Kd": "< 100 nM"}
{"binder": "FHC[Hyp][Tyr(3-I)]DLCH[Phe(4-CF3)] (disulfide 3-8 (inferred)) [F-H-C-Hyp-Y(3-I)-D-L-C-H-F(4-CF3)]", "Kd": "< 100 nM"}
{"binder": "[nTyr]HC[Hyp][Tyr(3-I)]DLCHI (disulfide 3-8 (inferred); reading uncertain) [nTyr-H-C-Hyp-Y(3-I)-D-L-C-H-I]", "Kd": "< 100 nM"}
{"binder": "LPCDYYGTC[NDecylGly][dD] (not fully specified; cysteine pairing not given here) [L-P-C-D-Y-Y-G-T-C-n(Decyl)G-dD]", "Kd": "< 10000 nM"}
{"binder": "[Phe(4-I)]HC[Hyp][Tyr(3-I)]DLCHI (disulfide 3-8 (inferred)) [F(4-I)-H-C-Hyp-Y(3-I)-D-L-C-H-I]", "Kd": "< 100 nM"}
{"binder": "FHC[Hyp]YDLCH[Bpa] (disulfide 3-8 (inferred)) [F-H-C-Hyp-Y-D-L-C-H-Bpa]", "Kd": "< 300 nM"}
{"binder": "[MTyr]HC[Hyp][Tyr(3-I)]DLCHI (disulfide 3-8 (inferred); reading uncertain) [MTyr-H-C-Hyp-Y(3-I)-D-L-C-H-I]", "Kd": "< 100 nM"}
{"binder": "[Phe(4-Me)]HC[Hyp][Tyr(3-I)]DLCHI (disulfide 3-8 (inferred)) [F(4-Me)-H-C-Hyp-Y(3-I)-D-L-C-H-I]", "Kd": "< 100 nM"}
{"binder": "[Bip]HC[Hyp]YDLCHIL (disulfide 3-8 (inferred)) [Bip-H-C-Hyp-Y-D-L-C-H-I-L]", "Kd": "< 500 nM"}
{"binder": "FHC[Hyp][Tyr(3-I)]DLCH[Phe(3-Me)] (disulfide 3-8 (inferred)) [F-H-C-Hyp-Y(3-I)-D-L-C-H-F(3-Me)]", "Kd": "< 200 nM"}
{"binder": "[Phe(4-OMe)]HC[Hyp][Tyr(3-Cl)]DLCH[Bpa]L (disulfide 3-8 (inferred)) [F(4-OMe)-H-C-Hyp-Y(3-Cl)-D-L-C-H-Bpa-L]", "Kd": "< 100 nM"}
{"binder": "[hPhe]HC[Hyp][Tyr(3-I)]DLCHI (disulfide 3-8 (inferred)) [Hfe-H-C-Hyp-Y(3-I)-D-L-C-H-I]", "Kd": "< 100 nM"}
{"binder": "[Phe(4-OMe)]HC[Hyp][Tyr(3-I)]DLCH[Bpa]L (disulfide 3-8 (inferred)) [F(4-OMe)-H-C-Hyp-Y(3-I)-D-L-C-H-Bpa-L]", "Kd": "< 100 nM"}
